Target: T1, EsCas13d, nuclease-dead (Eubacterium siraeum, UniProt B0MS50, R295A;H300A;R849A;H854A)
T1 sequence: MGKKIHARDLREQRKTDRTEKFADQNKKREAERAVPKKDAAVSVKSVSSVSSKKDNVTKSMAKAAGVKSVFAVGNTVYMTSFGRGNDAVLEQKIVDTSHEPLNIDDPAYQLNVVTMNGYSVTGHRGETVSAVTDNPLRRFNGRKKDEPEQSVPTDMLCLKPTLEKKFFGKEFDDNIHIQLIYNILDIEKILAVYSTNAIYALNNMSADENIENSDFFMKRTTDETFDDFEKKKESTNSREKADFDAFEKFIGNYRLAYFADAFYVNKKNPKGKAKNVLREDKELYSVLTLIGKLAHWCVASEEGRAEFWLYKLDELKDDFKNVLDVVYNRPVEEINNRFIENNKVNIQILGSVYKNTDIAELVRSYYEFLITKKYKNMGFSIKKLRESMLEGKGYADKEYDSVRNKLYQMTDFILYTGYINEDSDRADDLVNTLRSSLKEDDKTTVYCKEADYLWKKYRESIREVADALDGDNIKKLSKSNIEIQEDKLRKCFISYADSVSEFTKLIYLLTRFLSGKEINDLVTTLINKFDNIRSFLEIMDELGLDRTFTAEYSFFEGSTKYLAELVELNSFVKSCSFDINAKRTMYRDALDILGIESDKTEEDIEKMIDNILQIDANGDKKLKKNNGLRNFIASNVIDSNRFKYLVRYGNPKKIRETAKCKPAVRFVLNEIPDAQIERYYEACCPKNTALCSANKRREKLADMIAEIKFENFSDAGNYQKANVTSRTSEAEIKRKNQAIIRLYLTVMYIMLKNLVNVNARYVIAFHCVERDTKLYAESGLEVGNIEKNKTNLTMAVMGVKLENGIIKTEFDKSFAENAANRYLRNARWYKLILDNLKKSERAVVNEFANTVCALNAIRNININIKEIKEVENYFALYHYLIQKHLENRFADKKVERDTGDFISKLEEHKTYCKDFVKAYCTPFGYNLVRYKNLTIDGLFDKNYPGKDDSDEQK
Assay: crRNA (strand 1, pre-loaded); Mg2+; 40 mM Tris-HCl pH 7.5, 150 mM NaCl, 6 mM MgCl2, 1 mM DTT, 0.1% Tween-20, 0.2 mg/ml BSA; 25 C; 10 min per concentration, then washed
Settings: tags: His6-TwinStrep-SUMO cleaved; N-terminal SNAP kept (SNAP-Surface 488); label: 3' end held by stalled T7 RNA polymerase
measured.endpoint: pKd
pKd (log units): -log10 of the concentration in mol/L.

Exercise: Please report pKd for the following binder: target 2 MT 5'PFS GUC 3'PFS CUC (mixed) RNA 1: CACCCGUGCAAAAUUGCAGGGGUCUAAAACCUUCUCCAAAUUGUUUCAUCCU RNA 2: GGGAAUGGAUCCACAUCUACGAAUUCGUCAGGAUGAAACAAUUUGGAGAAGCUCAGAUCGGAAGAGCACACGU
Key: 7.81

Exercise: Please report pKd for the following binder: target 1 U10A,A18U (mixed) RNA 1: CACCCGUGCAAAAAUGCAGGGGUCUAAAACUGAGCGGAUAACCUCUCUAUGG RNA 2: GGGAAUGGAUCCACAUCUACGAAUUCGUACCAUUGAGAGGUAAUCCGCUCACCGAGAUCGGAAGAGCACACGU
Key: 7.37

Exercise: Please report pKd for the following binder: target 1 C6A,U10A (mixed) RNA 1: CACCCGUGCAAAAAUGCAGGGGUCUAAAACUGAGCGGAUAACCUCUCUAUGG RNA 2: GGGAAUGGAUCCACAUCUACGAAUUCGUACCAUAGAGAGGUAAUCAGCUCACCGAGAUCGGAAGAGCACACGU
Key: 8.11

Exercise: Please report pKd for the following binder: target 1 insU 3' of 14 (mixed) RNA 1: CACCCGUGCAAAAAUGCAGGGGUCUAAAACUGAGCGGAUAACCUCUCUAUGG RNA 2: GGGAAUGGAUCCACAUCUACGAAUUCGUACCAUAGAGAUGGUUAUCCGCUCACCGAGAUCGGAAGAGCACACGU
Key: 7.42

Exercise: Please report pKd for the following binder: target 3 A11C (mixed) RNA 1: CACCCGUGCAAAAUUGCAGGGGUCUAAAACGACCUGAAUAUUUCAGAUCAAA RNA 2: GGGAAUGGAUCCACAUCUACGAAUUCGUUUUUGAUCUGAACUAUUCAGGUCUGCAGAUCGGAAGAGCACACGU
Key: 7.09

Exercise: Please report pKd for the following binder: target 1 insA 3' of 8,insU 3' of 4 (mixed) RNA 1: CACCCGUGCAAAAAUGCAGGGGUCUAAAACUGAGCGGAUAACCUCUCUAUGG RNA 2: GGGAAUGGAUCCACAUCUACGAAUUCGUACCAUAGAGAGGUUAUACCGCUUCACCGAGAUCGGAAGAGCACACGU
Key: 7.91

Exercise: Please report pKd for the following binder: target 1 insG 3' of 19,insG 3' of 9 (mixed) RNA 1: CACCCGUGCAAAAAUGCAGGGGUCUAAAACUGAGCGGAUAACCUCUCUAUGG RNA 2: GGGAAUGGAUCCACAUCUACGAAUUCGUACCAUGAGAGAGGUUAGUCCGCUCACCGAGAUCGGAAGAGCACACGU
Key: 7.36

Exercise: Please report pKd for the following binder: target 3 insA 3' of 4,insA 3' of 4 (mixed) RNA 1: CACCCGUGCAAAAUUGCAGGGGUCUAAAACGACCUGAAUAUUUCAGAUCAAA RNA 2: GGGAAUGGAUCCACAUCUACGAAUUCGUUUUUGAUCUGAAAUAUUCAGAAGUCUGCAGAUCGGAAGAGCACACGU
Key: 7.68

Exercise: Please report pKd for the following binder: target 1 del2 (mixed) RNA 1: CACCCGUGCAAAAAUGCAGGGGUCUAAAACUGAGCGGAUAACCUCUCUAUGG RNA 2: GGGAAUGGAUCCACAUCUACGAAUUCGUACCAUAGAGAGGUUAUCCGCUACCGAGAUCGGAAGAGCACACGU
Key: 7.48

Exercise: Please report pKd for the following binder: target 3 insU 3' of 13,insA 3' of 2 (mixed) RNA 1: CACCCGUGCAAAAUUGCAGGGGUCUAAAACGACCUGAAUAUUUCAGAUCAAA RNA 2: GGGAAUGGAUCCACAUCUACGAAUUCGUUUUUGAUCUGAUAAUAUUCAGGUACUGCAGAUCGGAAGAGCACACGU
Key: 7.13

Exercise: Please report pKd for the following binder: target 3 U7A (mixed) RNA 1: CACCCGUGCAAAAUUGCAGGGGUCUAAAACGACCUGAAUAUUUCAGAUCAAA RNA 2: GGGAAUGGAUCCACAUCUACGAAUUCGUUUUUGAUCUGAAAUAUACAGGUCUGCAGAUCGGAAGAGCACACGU
Key: 7.56

Exercise: Please report pKd for the following binder: target 2 MT 5'PFS CGA 3'PFS AGA (mixed) RNA 1: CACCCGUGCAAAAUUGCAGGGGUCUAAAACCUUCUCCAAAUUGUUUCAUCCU RNA 2: GGGAAUGGAUCCACAUCUACGAAUUCCGAAGGAUGAAACAAUUUGGAGAAGAGAAGAUCGGAAGAGCACACGU
Key: 8.34

Exercise: Please report pKd for the following binder: target 2 MT 5'PFS GUC 3'PFS ACC (mixed) RNA 1: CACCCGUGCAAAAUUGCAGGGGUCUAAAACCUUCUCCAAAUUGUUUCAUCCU RNA 2: GGGAAUGGAUCCACAUCUACGAAUUCGUCAGGAUGAAACAAUUUGGAGAAGACCAGAUCGGAAGAGCACACGU
Key: 7.55

Exercise: Please report pKd for the following binder: target 1 MT 5'PFS CUG 3'PFS CGG (mixed) RNA 1: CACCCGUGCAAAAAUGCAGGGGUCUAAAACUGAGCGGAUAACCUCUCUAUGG RNA 2: GGGAAUGGAUCCACAUCUACGAAUUCCUGCCAUAGAGAGGUUAUCCGCUCACGGAGAUCGGAAGAGCACACGU
Key: 7.73
